# Test system: IL-2 production
# Assay name: Inhibition of IL-2 production in PHA-activated Jurkat cells (ELISA)
# Type: cell-based
# Condition details: Homo sapiens, Jurkat, 20 h, PHA 2.5 μg/mL, IL-2 ELISA
pIC50: −log10 of the molar value.
// values below are reported pIC50
Readout name: pIC50

>  <Query smiles>
COc1ccc2c(c1)-c1sc(C(=O)Nc3c(F)cccc3F)nc1CCO2

>  <Target of assay>
IL-2 production

>  <Readout name>
pIC50

>  <Result>
6.60 to 7.00

$$$$
>  <Query smiles>
O=C(Nc1ccc2c(c1)CCCc1cnc(-c3ccccn3)nc1-2)c1c(F)cccc1F

>  <Target of assay>
IL-2 production

>  <Readout name>
pIC50

>  <Result>
6.00 to 6.30

$$$$
>  <Query smiles>
COc1ccc2c(c1)-c1cnc(NC(=O)c3c(F)cccc3F)nc1CCC2

>  <Target of assay>
IL-2 production

>  <Readout name>
pIC50

>  <Result>
6.00 to 6.30

$$$$
>  <Query smiles>
O=C(Nc1nc2c(s1)-c1nc(-c3cccnc3)sc1CCC2)c1c(F)cccc1F

>  <Target of assay>
IL-2 production

>  <Readout name>
pIC50

>  <Result>
6.00 to 6.30

$$$$
>  <Query smiles>
O=C(Nc1ccc2c(c1)CCCc1sc(-c3cccnc3)nc1-2)c1c(F)cccc1F

>  <Target of assay>
IL-2 production

>  <Readout name>
pIC50

>  <Result>
7.00 to 7.52

$$$$
>  <Query smiles>
O=C(Nc1nc2c(s1)-c1cc(-c3ccccn3)ccc1CCC2)c1c(F)cccc1F

>  <Target of assay>
IL-2 production

>  <Readout name>
pIC50

>  <Result>
< 6.00

$$$$
>  <Query smiles>
Cn1nnnc1-c1ccc2c(c1)-c1sc(C(=O)Nc3c(F)cccc3F)nc1CCC2

>  <Target of assay>
IL-2 production

>  <Readout name>
pIC50

>  <Result>
≥ 7.52

$$$$
>  <Query smiles>
O=C(Nc1ccc2c(c1)CCCc1cnc(-c3cccnc3)nc1-2)c1c(F)cccc1F

>  <Target of assay>
IL-2 production

>  <Readout name>
pIC50

>  <Result>
7.00 to 7.52

$$$$
>  <Query smiles>
Fc1cccc(F)c1CNc1nc2c(s1)-c1cccc(-c3cnco3)c1CCC2

>  <Target of assay>
IL-2 production

>  <Readout name>
pIC50

>  <Result>
6.30 to 6.60

$$$$
>  <Query smiles>
O=C(Nc1c(F)cccc1F)c1nc2c(s1)-c1cc(OC(=O)n3ccnc3)ccc1CCC2

>  <Target of assay>
IL-2 production

>  <Readout name>
pIC50

>  <Result>
6.30 to 6.60

$$$$
>  <Query smiles>
CN(C)c1cccc(F)c1C(=O)Nc1nc2c(s1)-c1cc(C#N)ccc1CCC2

>  <Target of assay>
IL-2 production

>  <Readout name>
pIC50

>  <Result>
6.00 to 6.30

$$$$
>  <Query smiles>
O=C(Nc1c(F)cccc1F)c1nc2c(s1)-c1cc(CN3CCOCC3)ccc1CCC2

>  <Target of assay>
IL-2 production

>  <Readout name>
pIC50

>  <Result>
< 6.00

$$$$
>  <Query smiles>
COc1ccc2c(c1)-c1sc(/C(=N/c3c(F)cccc3F)SC)nc1CCC2

>  <Target of assay>
IL-2 production

>  <Readout name>
pIC50

>  <Result>
< 6.00

$$$$
>  <Query smiles>
CN1Cc2ccc(Br)cc2-c2sc(C(=O)Nc3c(F)cccc3F)nc2C1=O

>  <Target of assay>
IL-2 production

>  <Readout name>
pIC50

>  <Result>
< 6.00

$$$$
>  <Query smiles>
O=C(Nc1ccc2c(c1)CCCc1cnc(C3CC3)nc1-2)c1c(F)cccc1F

>  <Target of assay>
IL-2 production

>  <Readout name>
pIC50

>  <Result>
6.30 to 6.60

$$$$
>  <Query smiles>
O=C1NCc2ccc(Br)cc2-c2sc(NC(=O)c3c(F)cccc3F)nc21

>  <Target of assay>
IL-2 production

>  <Readout name>
pIC50

>  <Result>
< 6.00

$$$$
>  <Query smiles>
Fc1cccc(F)c1CN(Cc1c(F)cccc1F)c1ccc2c(c1)CCCc1cnc(-c3cccnc3)nc1-2

>  <Target of assay>
IL-2 production

>  <Readout name>
pIC50

>  <Result>
< 6.00

$$$$
>  <Query smiles>
O=C(Nc1c(F)cccc1F)c1nc2c(s1)-c1cc(-c3ccccn3)ccc1CCC2

>  <Target of assay>
IL-2 production

>  <Readout name>
pIC50

>  <Result>
≥ 7.52

$$$$
>  <Query smiles>
CCOC(=O)N(C(=O)c1nc2c(s1)-c1cc(OC)ccc1CCC2)c1c(F)cccc1F

>  <Target of assay>
IL-2 production

>  <Readout name>
pIC50

>  <Result>
6.60 to 7.00

$$$$
>  <Query smiles>
CN1Cc2ccc(Br)cc2-c2sc(NCc3c(F)cccc3F)nc2C1

>  <Target of assay>
IL-2 production

>  <Readout name>
pIC50

>  <Result>
< 6.00

$$$$
>  <Query smiles>
COC(=O)c1ccc2c(c1)-c1sc(C(=O)Nc3c(F)cccc3F)nc1CCC2

>  <Target of assay>
IL-2 production

>  <Readout name>
pIC50

>  <Result>
≥ 7.52

$$$$
>  <Query smiles>
O=C(Nc1c(F)cccc1F)c1nc2c(s1)-c1cc(-c3cn[nH]c3)ccc1CCC2

>  <Target of assay>
IL-2 production

>  <Readout name>
pIC50

>  <Result>
6.60 to 7.00

$$$$
